System: GH3-TRE-Luc cell line
Details: read-out: AC50 (uM) modified / 1000; Tox21_110001=Tox21_302725; viability, 1 nM T3 present, 24 h
Where a name gives a salt, the structure may show the parent alone.

COMPOUND | UNIT_SPEC | CC50
CC(CCc1ccccc1)NCC(O)c1ccc(O)c(C(N)=O)c1 (stereo not shown) [Labetalol hydrochloride] | µM | 24.7

----------
Test: in vitro
Details: rat, gh3-tre-luc cells, AC50 (uM) modified / 1000
Examples of compounds with documented CC50 at 24 h follow.

COMPOUND | CC50 at 24 h
CC1=C(/C=C/C(C)=C/C=C/C(C)=C/C=O)C(C)(C)CCC1 [Retinal] | 12.4 µM
CC(C)(O)CCCC1=CCC(C=O)CC1 (centres unmarked) | > 100 µM
O=C(/C=C/c1ccccc1)OC/C=C/c1ccccc1 [3-Phenyl-2-propen-1-yl 3-phenylacrylate] | > 90 µM
COC(=O)C(Cl)C(=O)OC [Dimethyl chloromalonate] | > 50 µM
CN(C)[C@@H]1C(O)=C(C(N)=O)C(=O)[C@@]2(O)C(O)=C3C(=O)c4c(O)cccc4[C@@](C)(O)[C@H]3C[C@@H]12 [Tetracycline] | > 90 µM
